# Tested on: HT29 colon
# MEASUREMENT NOTES: NCI tumour cell line growth inhibition, 48 h
Would you please tag the item rule met when its TGI is 20 µM or above, and rule not met when it is below?

COc1ccc2c(c1)-c1nn(CCN(C)C)c3ccc(C(=O)NCCCN(C)CCCNC(=O)c4ccc5c6c(nn5CCN(C)C)-c5cc(OC)ccc5Nc46)c(c13)N2 : rule not met

Exercise: Reported TGI at or above 20 µM? `Cc1ccc2nc(Cl)c(/C=N/N3C(=O)/C(=C/c4ccc(N(C)C)cc4)N=C3c3ccccc3)cc2c1`
Key: rule met

Exercise: Reported TGI at or above 20 µM? `CC(C)(C)OC(=O)NCC(=O)N1CCCN(C(=O)CNC(=O)OC(C)(C)C)CC1`
Key: rule met

Exercise: Reported TGI at or above 20 µM? `O=C(NN1C(=O)C=CC1=O)c1ccccc1Nc1ccccc1C(=O)NN1C(=O)C=CC1=O`
Key: rule met

Exercise: Reported TGI at or above 20 µM? `O=C1CC/C(=C\COc2ccc3ccc(=O)oc3c2)O1`
Key: rule not met

Exercise: Reported TGI at or above 20 µM? `CN(C)S(=O)(=O)c1ccc(Nc2ccc(O)c3c2C(=O)c2c([N+](=O)[O-])ccc(O)c2C3=O)cc1`
Key: rule met

Exercise: Reported TGI at or above 20 µM? `CC(=O)NC1=C(C)C(=O)c2c(nc3n2CC[C@H]3OC(C)=O)C1=O`
Key: rule not met

Exercise: Reported TGI at or above 20 µM? O=C1C(N=Nc2ccc(-c3nc4ccccc4[nH]3)cc2)NC(=S)N1c1ccccc1 (stereo not given)
Key: rule met

Exercise: Reported TGI at or above 20 µM? `COc1cc2ncn(-c3cc(OCc4ccccc4S(C)(=O)=O)c(C#N)s3)c2cc1OC`
Key: rule met

Exercise: Reported TGI at or above 20 µM? O=C(NC1(C(=O)O)CC1c1ccccc1)c1ccccc1 (stereo not given)
Key: rule met

----------
# System: SN12C renal
# MEASUREMENT NOTES: NCI tumour cell line growth inhibition, 48 h
Reported GI50 values are given for each entry in this list.

Cc1ccc(/C(=C/C=C(C#N)C#N)Sc2ccccn2)cc1 : 1910 nM

Exercise: Please report GI50 for the following compound: `COc1cc2c(cc1OC)-c1c(c3ccc([N+](=O)[O-])cc3c(=O)n1CCCN)C2=O`
Key: 695 nM

Exercise: Please report GI50 for the following compound: `O=C(Nc1cccc(-n2ccc3c(NC(=O)c4ccccc4)nccc32)c1)c1cc(N2CCOCC2)cc(C(F)(F)F)c1`
Key: 467 nM

Exercise: Please report GI50 for the following compound: O=C1OCC2=C1C(c1cccc(C(F)(F)F)c1)c1cc3c(cc1N2CCO)CCC3 (stereo not given)
Key: 309 nM

Exercise: Please report GI50 for the following compound: CN(C)CC(NC(NCS)C(=O)NCCNc1ccc(NCCNC(=O)C(NCS)NC(CN(C)C)OCCl)c2c1C(=O)c1c(O)ccc(O)c1C2=O)OCCl (stereo not given)
Key: < 1 nM

Exercise: Please report GI50 for the following compound: `Oc1ccc(CN(Cc2ccc(C(F)(F)F)cc2)Cc2ccc(O)c3ncccc23)c2cccnc12`
Key: 20.1 nM

Exercise: Please report GI50 for the following compound: `COc1ccc2[nH]cc(-c3nc(-c4c[nH]c5ccncc45)cs3)c2c1`
Key: 1830 nM

Exercise: Please report GI50 for the following compound: `COc1ccc(-n2c3c(c4c(CN(C)C)c(O)c(C)cc42)CCc2ccccc2C3=O)cc1`
Key: 29600 nM

Exercise: Please report GI50 for the following compound: `CO/N=C(/COc1c(-c2ccccc2)oc2ccccc2c1=O)c1ccc(F)cc1`
Key: 35100 nM

Exercise: Please report GI50 for the following compound: CC(C)CCC[C@@H](C)[C@H]1CCC2C3=CCC4C(=O)C=CC(=O)C4C3CC[C@@]21C (stereo not given in full)
Key: 256 nM
